Reference source for all entries: PubChem BioAssay (NCATS)

Tested on: HaCat
Assay: Cytotoxic Profiling of Annotated Libraries Using Quantitative High-Throughput Screening (AID 1296008); note: nearly all actives have a fitted effect of over 60% in size
Conditions: Five cell lines viability, CellTiter-Glo ATP luminescence, 48-72 h
Results filed as inconclusive are left out. Calls of active or inactive are those of the source. Calls come from the whole dose curve; as a rule, active = well fitted inhibition curve with a large enough effect; inconclusive = small, poorly fitted or top-dose-only effect; inactive = flat fitted curve, though single readings scatter.
Lab note: assign the record to one of active, inactive

Test call for this compound, please: O=C(O)c1ccc(OCCN2CCCCC2)cc1
inactive

Test call for this compound, please: C=CCOc1cc(Cl)ccc1C(=O)NCCN(CC)CC
inactive

Test call for this compound, please: Nc1ccc2cc3ccc(N)cc3nc2c1
active

Test call for this compound, please: CCCCCOc1ccc(C2SC(=O)NC2=O)cc1OCC (stereo not drawn)
inactive

Test call for this compound, please: CN1CC(=O)N2[C@H](c3ccc4c(c3)OCO4)c3[nH]c4ccccc4c3C[C@@H]2C1=O
inactive

Test call for this compound, please: C[C@H]1C[C@@H]2[C@H]([C@@H](O)C[C@@]3(C)[C@H]2CC[C@]3(O)C(=O)CO)[C@@]2(C)C=CC(=O)C=C12
inactive

Test call for this compound, please: Oc1ccccc1
inactive

Test call for this compound, please: CCO[C@H](Cc1ccc(OCCc2ccc(OS(C)(=O)=O)cc2)cc1)C(=O)O
inactive

Test call for this compound, please: Cc1nc(C2CCCCC2)c(-c2ccc(S(N)(=O)=O)c(F)c2)o1
inactive

Test call for this compound, please: Nc1ccc([N+](=O)[O-])c(C(F)(F)F)c1
inactive

***
Test call for this compound, please: CC(=O)OC/C=C(C)/C=C/C=C(C)/C=C/C1=C(C)CCCC1(C)C
inactive

Test call for this compound, please: CC[C@@]1(O)C(=O)OCc2c1cc1n(c2=O)Cc2c-1nc1ccccc1c2/C=N/OC(C)(C)C
active

Test call for this compound, please: O=C1CC2(CCCC2)CC(=O)N1
inactive

Test call for this compound, please: C[N+]1(C)CCC(OC(=O)C(O)(c2ccccc2)C2CCCC2)C1 (stereo not drawn)
inactive

Test call for this compound, please: Cc1cnc(NS(=O)(=O)c2ccc(N)cc2)nc1
inactive

----------
Test: qHTS of pediatric cancer cell lines to identify multiple opportunities for drug repurposing: Primary screen for NB-EBc1 cells (AID 1347095)
Conditions: NB-EBc1 neuroblastoma viability, CellTiter-Glo luminescence, 48 h; series mostly up to 46 µM
Results filed as inconclusive are left out. Calls of active or inactive are those of the source. Calls come from the whole dose curve; as a rule, active = well fitted cell-killing curve with a large enough effect; inconclusive = small, poorly fitted or top-dose-only effect; inactive = no such curve, though single readings can be large or run the other way.
Lab note: assign the record to one of yes (1) (active), no (0) (inactive)

Solved cases below.
Test call for this molecule, please: CC(C)C[C@H](NC(=O)CNC(=O)[C@H](Cc1ccc(O)cc1)NC(=O)[C@H](CO)NC(=O)[C@H](Cc1c[nH]c2ccccc12)NC(=O)[C@H](Cc1cnc[nH]1)NC(=O)[C@@H]1CCC(=O)N1)C(=O)N[C@@H](CCCN=C(N)N)C(=O)N1CCC[C@H]1C(=O)NCC(N)=O (stereo in doubt)
no (0)

Test call for this molecule, please: CC(CC1c2ccccc2CCc2ccccc21)CN(C)C (centres undefined)
no (0)

Test call for this molecule, please: O=C(Oc1ccccc1)c1ccccc1O
no (0)

Test call for this molecule, please: O=c1[nH]c2ccccc2c(=O)n1CCCl
no (0)

Test call for this molecule, please: O=C(Nc1ccc(Cl)cc1)Nc1ccc(Cl)c(C(F)(F)F)c1
yes (1)

***
Test call for this molecule, please: CN1CC[C@H](c2c(O)cc(O)c3c(=O)cc(-c4ccccc4Cl)oc23)[C@H](O)C1
yes (1)

Test call for this molecule, please: COC(=O)c1cc(S(N)(=O)=O)ccc1OC
no (0)

Test call for this molecule, please: CC(=O)Nc1ccn(C2COC(COC(=O)c3ccccc3)O2)c(=O)n1 (centres undefined)
yes (1)

Test call for this molecule, please: C[C@H]1NCc2cc(-c3ccc4c(=O)c(C(=O)O)cn(C5CC5)c4c3OC(F)F)ccc21
no (0)

Test call for this molecule, please: CCCCC(CC)COC(=O)c1ccccc1C(=O)O (centres undefined)
no (0)
